EXPERIMENTAL_SYSTEM: CCL3L1_HUMAN (Homo sapiens, UniProt P16619)
Sequence (P16619 24-93): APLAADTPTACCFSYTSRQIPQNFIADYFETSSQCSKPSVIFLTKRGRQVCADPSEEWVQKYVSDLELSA
ASSAY_TEXT: Biolayer interferometry (BLI) binding
Procedure: Table 1. Tick CKBPs described in PCT/GB2017/050563 and [17]. Tick peptide sequences isolated in yeast surface display fluorescent-activated cell sorting (FACS) screens using a labelled chemokine. Identity with Evasin-1, 4 or 3 was calculated using BLAST. […] Binding to human chemokines was determined for 14 tick CKBPs using biolayer interferometry (BLI) with calculated Kd shown as Molar (Moles/Litre). […] Where binding was detected data are indicated as “YES”. […]
ASSAY_METRIC: Kd

Recorded Kd, per entry:
1. P1182_AMBMA: tick CKBP, Amblyomma maculatum (protein, listed as Amblyomma maculatum) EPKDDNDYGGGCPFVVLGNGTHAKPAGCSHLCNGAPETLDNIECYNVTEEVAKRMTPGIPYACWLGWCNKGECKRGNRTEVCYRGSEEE :: 9.5 nM
2. P546_AMBCA: tick CKBP, Amblyomma cajennense (protein, Amblyomma cajennense) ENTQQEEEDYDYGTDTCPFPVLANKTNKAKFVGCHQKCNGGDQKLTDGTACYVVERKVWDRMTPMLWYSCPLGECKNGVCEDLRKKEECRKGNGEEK :: 15 nM
3. P672_RHIPU: tick CKBP, Rhipicephalus pulchellus (protein, listed as Rhipicephalus pulchellus) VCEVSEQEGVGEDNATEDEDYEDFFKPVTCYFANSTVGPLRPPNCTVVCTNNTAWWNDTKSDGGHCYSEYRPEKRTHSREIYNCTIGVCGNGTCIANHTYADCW :: 2.7 nM

Field: next molecule
Quick one: Kd of P983_AMBPA: tick CKBP; named P983_AMBCA in Table 1 (protein, Amblyomma cajennense) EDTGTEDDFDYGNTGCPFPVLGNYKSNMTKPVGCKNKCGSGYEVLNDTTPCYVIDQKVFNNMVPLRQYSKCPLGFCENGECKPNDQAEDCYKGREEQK ?
2.1 nM
